Molecular target: human Glucose-dependent Insulinotropic Polypeptide Receptor (hGIPR) (Homo sapiens, UniProt P48546)
Sequence (P48546 22-466): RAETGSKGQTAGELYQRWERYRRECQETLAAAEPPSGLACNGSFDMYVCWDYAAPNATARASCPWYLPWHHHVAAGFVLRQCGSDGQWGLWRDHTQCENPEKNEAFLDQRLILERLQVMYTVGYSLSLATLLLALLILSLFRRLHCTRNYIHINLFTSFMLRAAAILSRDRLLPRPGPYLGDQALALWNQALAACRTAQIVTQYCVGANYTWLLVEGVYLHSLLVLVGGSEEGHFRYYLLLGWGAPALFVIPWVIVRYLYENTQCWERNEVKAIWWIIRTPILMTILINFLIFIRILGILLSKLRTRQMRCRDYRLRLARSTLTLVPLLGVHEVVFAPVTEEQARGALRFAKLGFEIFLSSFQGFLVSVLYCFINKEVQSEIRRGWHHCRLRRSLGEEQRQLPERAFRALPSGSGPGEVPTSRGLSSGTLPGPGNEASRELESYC
Experiment: Functional in vitro GIPR antagonist potency assay (intracellular cAMP, HTRF, hGIP stimulation at EC80)
Format: cell-based
Conditions: geometric mean; CHO-K1 cells stably expressing human GIPR, cAMP after hGIP stimulation at EC80
Assay readout: IC50 (µM)
A number alone suffices; assume µM.

Below: 5 compounds and their reported IC50.
- Substance smiles: "Cc1cc(-n2ccc(NC(=O)[C@H]3CCCN3C(=O)Nc3ccc(Cl)c(C(F)(F)F)c3)n2)ccc1C(=O)O"
  Units of measure: "µM"
  IC50: 0.075
- Substance smiles: "CC(C)c1ccc(NC(=O)N2CCC[C@@H]2C(=O)Nc2ccn(-c3ccc(O)cc3F)n2)cc1"
  Units of measure: "µM"
  IC50: 0.034
- Substance smiles: "CC(C)c1ccc(NC(=O)N2CCC[C@@H]2C(=O)Nc2ccn(-c3ccc(C(=O)O)cc3F)n2)cc1"
  Units of measure: "µM"
  IC50: 0.015
- Substance smiles: "O=C(O)c1ccc(-n2ccc(NC(=O)[C@H]3CCCN3C(=O)NCc3ccc(OC(F)(F)F)cc3)n2)cc1"
  Units of measure: "µM"
  IC50: 0.09
- Substance smiles: "Cc1cc(-n2ccc(NC(=O)[C@H]3CCCN3C(=O)NCc3ccc(C4CC4)cc3)n2)ccc1C(=O)O"
  Units of measure: "µM"
  IC50: 0.22

Tell me the measured IC50 of Cc1cc(-n2ccc(NC(=O)[C@H]3CCCN3C(=O)Nc3ccc(C(F)(F)F)cc3)n2)ccc1C(N)=O , please.
0.24

What IC50 value was documented for this compound, Cc1cc(-n2ccc(NC(=O)[C@H]3CCCN3C(=O)Nc3ccc(C(C)C)cc3)n2)c(F)cc1C(=O)O ?
0.021

###

pIC50 by entry:
Molecular target: human Glucose-dependent Insulinotropic Polypeptide Receptor (hGIPR) (Homo sapiens, UniProt P48546)
Assay: Functional in vitro GIPR antagonist potency assay (intracellular cAMP, HTRF, hGIP stimulation at EC80)
Type: cell-based
Conditions: geometric mean; CHO-K1 cells stably expressing human GIPR, cAMP after hGIP stimulation at EC80
Quick note: pIC50 means taking -log10 of the concentration in moles per liter.

Which pIC50 value is on record for Cc1cc(-n2ccc(NC(=O)[C@H]3CCCN3C(=O)NCc3ccc(OC(F)(F)F)cc3)n2)ccc1C(=O)O [Example 8] ?
7.21

Can you share its pIC50? I mean this molecule: Cc1cc(-n2ccc(NC(=O)[C@H]3CCCN3C(=O)Nc3ccc(OC(F)(F)F)cc3)n2)ccc1C(N)=O [Example 41]
7.01

If you can, please state the reported pIC50 value of Cc1cc(-n2ccc(NC(=O)[C@H]3CCCN3C(=O)Nc3ccc(C(C)C)cc3)n2)ccc1C(=O)O [Example 29] .
7.89

Using the record for Cc1cc(-n2ccc(NC(=O)[C@H]3CCCN3C(=O)COc3ccc(C(F)(F)F)cc3)n2)ccc1C(N)=O [Example 60] , report its pIC50.
6.68

Using the record for Cc1cc(-n2ccc(NC(=O)[C@H]3CCCN3C(=O)Nc3cc(F)c(C(F)(F)F)c(F)c3)n2)ccc1C(=O)O [Example 51] , report its pIC50.
7.46

Reported pIC50 for Cc1cc(-n2ccc(NC(=O)[C@H]3CCCN3C(=O)Nc3ccc(Cl)c(Cl)c3)n2)ccc1C(=O)O [Example 37] : what is it?
7.03

What value of pIC50 has been reported for the following molecule? Cc1c(C(=O)O)ccc(-n2ccc(NC(=O)[C@H]3CCCN3C(=O)COc3ccc(OC(F)(F)F)cc3)n2)c1F [Example 65]
7.40

Recorded pIC50 for Cc1c(C(=O)O)ccc(-n2ccc(NC(=O)[C@H]3CCCN3C(=O)COc3ccc(C(F)(F)F)cc3)n2)c1F [Example 64] , please?
7.55

What measured pIC50 goes with Cc1cc(-n2ccc(NC(=O)[C@H]3CCCN3C(=O)CCc3ccc(C(F)(F)F)cc3)n2)ccc1C(=O)O [Example 18] ?
6.60

Can you share its pIC50? I mean this molecule: Cc1c(C(=O)O)ccc(-n2ccc(NC(=O)[C@H]3CCCN3C(=O)Nc3ccc(C(F)(F)F)cc3)n2)c1F [Example 66]
7.27

Would you kindly share the measured pIC50 for CC(C)c1ccc(NC(=O)N2CCC[C@@H]2C(=O)Nc2ccn(-c3cc(F)c(O)c(F)c3)n2)cc1 [Example 43] ?
8.28

What value of measured pIC50 is listed for C=C(C)c1ccc(NC(=O)N2CCC[C@@H]2C(=O)Nc2ccn(-c3ccc(C(=O)O)c(C)c3)n2)cc1C [Example 58] ?
8.06

Can you share its pIC50? I mean this molecule: Cc1cc(NC(=O)N2CCC[C@@H]2C(=O)Nc2ccn(-c3ccc(C(=O)O)cc3)n2)ccc1C(F)(F)F [Example 31]
7.62

Quick one: pIC50 of Cc1cc(-n2ccc(NC(=O)[C@H]3CCCN3C(=O)COc3ccc(C(F)(F)F)c(F)c3)n2)ccc1C(=O)O [Example 67] ?
7.21
